# pKi values compiled below
target: Mu-type opioid receptor (Rattus norvegicus)
Sequence (P33535 whole entry): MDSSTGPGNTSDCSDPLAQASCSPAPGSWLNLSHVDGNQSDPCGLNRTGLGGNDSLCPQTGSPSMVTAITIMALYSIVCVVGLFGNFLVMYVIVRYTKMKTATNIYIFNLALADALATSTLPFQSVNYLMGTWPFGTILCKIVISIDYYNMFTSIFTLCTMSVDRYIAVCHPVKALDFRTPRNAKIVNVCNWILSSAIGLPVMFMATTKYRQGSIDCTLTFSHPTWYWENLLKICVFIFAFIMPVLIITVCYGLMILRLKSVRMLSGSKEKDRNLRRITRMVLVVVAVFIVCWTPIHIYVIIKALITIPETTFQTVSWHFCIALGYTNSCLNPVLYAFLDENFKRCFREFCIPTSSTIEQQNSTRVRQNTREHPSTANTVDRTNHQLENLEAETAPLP
pKi: −log10 of the molar value.
value-type: pKi

[[record]]
structure_smiles_string = "CO[C@H](CN1CC[C@@]2(C)c3cc(O)ccc3C[C@@H]1[C@@H]2C)c1ccccc1"
value_type = "pKi"
recorded_value = 9.30

[[record]]
structure_smiles_string = "CO[C@@H](CN1CC[C@@]2(C)c3cc(O)ccc3C[C@@H]1[C@@H]2C)c1ccccc1"
value_type = "pKi"
recorded_value = 7.91


====

biological target: Delta-type opioid receptor (Homo sapiens, UniProt P41143); test: Agonist activity at Rluc-tagged DOR receptor (unknown origin) expressed in human […] cells co-expressing RGFP-fused to Gbeta1 assessed as increase in DOR/G beta1 protein interaction incubated for 5 mins in presence of coelenterazine by BRET assay; type: cell-based
Sequence (P41143 whole entry, the tested form may be a part): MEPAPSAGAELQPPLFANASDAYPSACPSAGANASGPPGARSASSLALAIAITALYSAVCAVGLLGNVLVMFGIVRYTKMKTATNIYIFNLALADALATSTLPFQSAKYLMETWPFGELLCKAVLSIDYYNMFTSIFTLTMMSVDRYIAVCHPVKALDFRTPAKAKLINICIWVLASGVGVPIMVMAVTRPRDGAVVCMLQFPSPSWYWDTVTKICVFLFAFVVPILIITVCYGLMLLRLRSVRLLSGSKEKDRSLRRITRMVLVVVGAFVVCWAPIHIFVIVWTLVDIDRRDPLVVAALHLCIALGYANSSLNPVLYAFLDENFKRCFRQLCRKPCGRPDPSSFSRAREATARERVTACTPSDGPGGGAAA
pEC50: −log10 of the molar value.
value-type: pEC50

[[record]]
compound = "C[C@H]1[C@H]2Cc3ccc(O)cc3[C@]1(C)CCN2C[C@H](O)c1ccccc1"
value_type = "pEC50"
recorded_value = 7.23

[[record]]
compound = "CO[C@H](CN1CC[C@@]2(C)c3cc(O)ccc3C[C@@H]1[C@@H]2C)c1ccccc1"
value_type = "pEC50"
recorded_value = 7.49

[[record]]
compound = "C[C@H]1[C@H]2Cc3ccc(O)cc3[C@]1(C)CCN2C[C@@H](O)c1ccccc1"
value_type = "pEC50"
recorded_value = 7.84

[[record]]
compound = "COC(CN1CC[C@@]2(C)c3cc(O)ccc3C[C@@H]1[C@@H]2C)c1ccccc1 (some centres undefined)"
value_type = "pEC50"
recorded_value = 7.02


====

# Ratio values compiled below
target: Mu-type opioid receptor (Homo sapiens, UniProt P35372); assay: Potency index, ratio of test compounds EC50 to DADLE EC50 for agonist activity at Rluc-tagged MOR receptor (unknown origin) expressed in human […] cells co-expressing RGFP-fused to Gbeta1; format: cell-based
Sequence (P35372 whole entry, the tested form may be a part): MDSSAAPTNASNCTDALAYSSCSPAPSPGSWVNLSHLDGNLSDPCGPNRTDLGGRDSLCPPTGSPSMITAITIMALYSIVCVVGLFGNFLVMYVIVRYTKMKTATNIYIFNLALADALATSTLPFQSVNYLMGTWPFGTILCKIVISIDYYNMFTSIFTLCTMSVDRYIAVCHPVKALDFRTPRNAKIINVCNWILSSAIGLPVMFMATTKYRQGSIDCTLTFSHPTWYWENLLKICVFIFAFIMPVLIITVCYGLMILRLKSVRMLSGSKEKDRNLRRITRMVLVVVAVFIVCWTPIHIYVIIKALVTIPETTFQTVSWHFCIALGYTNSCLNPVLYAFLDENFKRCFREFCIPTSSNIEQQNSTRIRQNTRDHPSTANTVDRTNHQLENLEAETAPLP
value-type: Ratio

[[record]]
molecule = "C[C@H]1[C@H]2Cc3ccc(O)cc3[C@]1(C)CCN2C[C@@H](O)c1ccccc1"
recorded_value = 0.06

[[record]]
molecule = "COC(CN1CC[C@@]2(C)c3cc(O)ccc3C[C@@H]1[C@@H]2C)c1ccccc1 (some centres undefined)"
recorded_value = 0.1

[[record]]
molecule = "CO[C@H](CN1CC[C@@]2(C)c3cc(O)ccc3C[C@@H]1[C@@H]2C)c1ccccc1"
recorded_value = 0.04

[[record]]
molecule = "C[C@H]1[C@H]2Cc3ccc(O)cc3[C@]1(C)CCN2C[C@H](O)c1ccccc1"
recorded_value = 0.19


====

pKi: −log10 of the molar value.
Measured pKi (UniProtKB P41144)
Sequence (P41144 whole entry): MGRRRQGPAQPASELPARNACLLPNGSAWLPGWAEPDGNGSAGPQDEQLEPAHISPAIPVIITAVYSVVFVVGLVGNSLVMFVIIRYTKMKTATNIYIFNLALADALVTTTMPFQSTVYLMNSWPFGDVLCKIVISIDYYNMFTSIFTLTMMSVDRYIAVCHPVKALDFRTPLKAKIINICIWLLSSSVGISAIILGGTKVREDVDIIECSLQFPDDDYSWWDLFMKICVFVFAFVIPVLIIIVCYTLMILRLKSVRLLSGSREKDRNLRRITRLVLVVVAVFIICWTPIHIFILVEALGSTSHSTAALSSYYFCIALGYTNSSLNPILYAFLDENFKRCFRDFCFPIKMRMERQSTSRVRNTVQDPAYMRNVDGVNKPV
value-type: pKi

[[record]]
structure_smiles_string = "CO[C@@H](CN1CC[C@@]2(C)c3cc(O)ccc3C[C@@H]1[C@@H]2C)c1ccccc1"
value_type = "pKi"
recorded_value = 6.63

[[record]]
structure_smiles_string = "CO[C@H](CN1CC[C@@]2(C)c3cc(O)ccc3C[C@@H]1[C@@H]2C)c1ccccc1"
value_type = "pKi"
recorded_value = 7.58


====

target: UniProt:P35372; test: Potency index, ratio of test compounds intrinsic activity to DADLE intrinsic activity for agonist activity at Rluc-tagged MOR receptor (unknown origin) expressed in human […] cells co-expressing RGFP-fused to Gbeta1; format: cell-based
value-type: Ratio

[[record]]
molecule = "COC(CN1CC[C@@]2(C)c3cc(O)ccc3C[C@@H]1[C@@H]2C)c1ccccc1 (some centres undefined)"
value_type = "Ratio"
recorded_value = 0.92

[[record]]
molecule = "C[C@H]1[C@H]2Cc3ccc(O)cc3[C@]1(C)CCN2C[C@H](O)c1ccccc1"
value_type = "Ratio"
recorded_value = 0.82

[[record]]
molecule = "CO[C@H](CN1CC[C@@]2(C)c3cc(O)ccc3C[C@@H]1[C@@H]2C)c1ccccc1"
value_type = "Ratio"
recorded_value = 0.93

[[record]]
molecule = "C[C@H]1[C@H]2Cc3ccc(O)cc3[C@]1(C)CCN2C[C@@H](O)c1ccccc1"
value_type = "Ratio"
recorded_value = 0.87


====

molecular target: Delta-type opioid receptor (Homo sapiens, UniProt P41143); assay: Agonist activity at Rluc-tagged DOR receptor (unknown origin) expressed in human […] cells co-expressing RGFP-fused to beta-arrestin-2 assessed as increase in DOR/beta-arrestin-2 protein interaction incubated for 5 mins in presence of coelenterazine by BRET assay; assay type: cell-based
pEC50: −log10 of the molar value.
value-type: pEC50

[[record]]
compound = "COC(CN1CC[C@@]2(C)c3cc(O)ccc3C[C@@H]1[C@@H]2C)c1ccccc1 (some centres not stated)"
recorded_value = 5.65

[[record]]
compound = "CO[C@H](CN1CC[C@@]2(C)c3cc(O)ccc3C[C@@H]1[C@@H]2C)c1ccccc1"
recorded_value = 5.73


====

target: Mu-type opioid receptor (Homo sapiens, UniProt P35372)
# EC50 values compiled below
value-type: EC50 (nM)

[[record]]
molecule = "C[C@H]1[C@H]2Cc3ccc(O)cc3[C@]1(C)CCN2C[C@H](O)c1ccccc1"
recorded_value = 22.4

[[record]]
molecule = "COC(CN1CC[C@@]2(C)c3cc(O)ccc3C[C@@H]1[C@@H]2C)c1ccccc1 (some centres undefined)"
recorded_value = 12.6

[[record]]
molecule = "C[C@H]1[C@H]2Cc3ccc(O)cc3[C@]1(C)CCN2C[C@@H](O)c1ccccc1"
recorded_value = 6.61

[[record]]
molecule = "CO[C@H](CN1CC[C@@]2(C)c3cc(O)ccc3C[C@@H]1[C@@H]2C)c1ccccc1"
recorded_value = 4.68


====

# pKi values compiled below
molecular target: Delta-type opioid receptor (Rattus norvegicus, UniProt P33533); assay: Displacement of [3H]DPDPE from DOR in rat brain membranes incubated for 45 mins by liquid scintillation counting
Sequence (P33533 whole entry): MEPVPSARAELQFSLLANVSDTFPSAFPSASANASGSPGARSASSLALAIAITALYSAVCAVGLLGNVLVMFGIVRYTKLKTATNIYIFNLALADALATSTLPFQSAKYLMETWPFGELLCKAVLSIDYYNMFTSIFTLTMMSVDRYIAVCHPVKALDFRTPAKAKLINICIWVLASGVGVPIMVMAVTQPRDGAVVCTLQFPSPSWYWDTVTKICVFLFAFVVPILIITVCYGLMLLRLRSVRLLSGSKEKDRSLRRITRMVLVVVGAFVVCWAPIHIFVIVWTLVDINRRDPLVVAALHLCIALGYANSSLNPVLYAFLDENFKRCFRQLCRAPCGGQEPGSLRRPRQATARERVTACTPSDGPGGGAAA
pKi: −log10 of the molar value.
value-type: pKi

[[record]]
structure_smiles_string = "CO[C@@H](CN1CC[C@@]2(C)c3cc(O)ccc3C[C@@H]1[C@@H]2C)c1ccccc1"
study_target = "Delta-type opioid receptor (Rattus norvegicus, UniProt P33533)"
recorded_value = 6.82

[[record]]
structure_smiles_string = "CO[C@H](CN1CC[C@@]2(C)c3cc(O)ccc3C[C@@H]1[C@@H]2C)c1ccccc1"
study_target = "Delta-type opioid receptor (Rattus norvegicus, UniProt P33533)"
recorded_value = 8.59

